- tgt: T1, mouse DLL4 extracellular domain (mouse, UniProt Q9JI71 27-532)
- T1 construct: extracellular domain; also called muDLL4 ECD; murine DLL4
- experimentSummary: SPR (Biacore)
Answer each item with its documented pKd.
A value of pKd is the negative decimal logarithm of a concentration given in moles per litre.

So what does the record say about pKd for 15D6 rat anti-DLL4 monoclonal antibody (antibody, rat IgG2a, V domains shown, rat IgG2a/K hybridoma mAb; also called MC13-15D6.1G7) VH: EVQLQQSGPELAKPGSSVKISCKASGYTFTSSYISWIKQTTGQGLEYIGYINTGSGGTDYNEKFKDKATLTVDKSSRTVFMQLSSLTPGDSAVYYCAKSILLGSTYYLDYWGQGVMVTVSS VL: DTVLTQSPALAVSLGQRVTISCKASRSLSSPMYSYIYWYQQKLGQQPRLLIYRASTLASGVPARFSGSGSGTDFTLNIDPVEADDIATYFCQQSWSDPFTFGSGTKLEIKR ?
9.15

Entry 37D10 rat anti-DLL4 monoclonal antibody (antibody, rat IgG2a, V domains shown, rat IgG2a/k hybridoma mAb; also called 40B10; 37D10 = 40B10) VH: AVQLVESGGGLVQPKESLKISCAASGFTFSNAAMYWVRLAPGKGLEWVARIRTKPNNYATYYAESVKGRFTISRDDSKSMVYVQMDNLKTEDTAMYYCTAAPWRDSYAHVYWGQGVMVTVSS VL: DIQMTQSPPVLSASVGDRVTLSCKASQNIHKNLDWYQQKHGDAPKLLIYYTDHLQTGVPSRFSGSGSATDYTLTISSLQPEDVATYYCYQYNGGPFTFGSGTKLEIKR please
6.87

The values you see were collected from patent US20110217237A1.
